The following are reported IC50 results, target or system PLL5 (Photorhabdus laumondii subsp. laumondii, UniProt Q7N8I5).
test readout: IC50 (mM)

{"compound": "CO[C@@H]1O[C@@H](C)[C@@H](O)[C@@H](O)[C@@H]1O [αMeFuc, methyl-α-L-fucoside]", "result": 1.7}
{"compound": "C[C@H](O)[C@@H](O)[C@@H](O)[C@H](O)C=O [L-Fuc, L-fucose]", "result": 3.6}
{"compound": "CO[C@@H]([C@H](O)[C@H](O)CO)[C@@H](O)C=O [3OMG, 3-O-methyl-D-glucose]", "result": 16.9}
